Below: a set of entries, each annotated with reported pIC50.
study_target: MNK1 (Homo sapiens, UniProt Q9BUB5)
assay_info: In vitro MNK kinase assay (Caliper LabChip mobility shift)
Format: biochemical
condition_label: enzymatic, 1.2 mM ATP; read-out: IC50 Mnk1
pIC50: −log10 of the molar value.

N#Cc1ccc(-c2cnc3ccc(-c4ccc(C(=O)N5CCN(Cc6ccc(C(N)=O)cc6)CC5)cc4)cn23)cc1 [Example 129]    > 6.00

Enter reported pIC50 observed with MNK1 (Homo sapiens, UniProt Q9BUB5) for Cc1cc2ncc(-c3ccc(C#N)cc3)n2cc1-c1ccc(C(=O)N2CCC(C)(N)CC2)cc1 [Example 137]
> 6.00

# returns recorded pIC50 (system: MNK1 (Homo sapiens, UniProt Q9BUB5)) for N#Cc1ccc(-c2cnc3ccc(-c4ccc(C(=O)N5CCNCC5)cc4)cn23)cc1 [Example 165]
> 7.00

Given the entry N#Cc1ccc(-c2cnc3ccc(-c4ccc(C(=O)N5CCOCC5)c(O)c4)cn23)cc1 [Example 167] , what pIC50 was observed with MNK1 (Homo sapiens, UniProt Q9BUB5)?
> 7.00

---

IC50 values by entry
study_target: MNK2 (Homo sapiens (Human), UniProt Q9HBH9)
Sequence (Q9HBH9 84-388): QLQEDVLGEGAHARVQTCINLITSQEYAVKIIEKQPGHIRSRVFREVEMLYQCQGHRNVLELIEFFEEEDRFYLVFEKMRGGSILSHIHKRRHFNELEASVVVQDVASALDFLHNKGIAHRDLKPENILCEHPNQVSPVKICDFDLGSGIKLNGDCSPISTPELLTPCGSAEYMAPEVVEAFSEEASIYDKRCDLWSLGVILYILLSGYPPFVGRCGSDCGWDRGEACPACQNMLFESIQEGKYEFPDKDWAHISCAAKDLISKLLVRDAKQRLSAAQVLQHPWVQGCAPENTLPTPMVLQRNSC
assay_info: In vitro MNK kinase assay (Caliper LabChip mobility shift)
Assay type: biochemical
condition_label: enzymatic, 250 μM ATP; read-out: IC50 Mnk2

Would you please look over these solved cases?
CN(C(=O)c1ccc(-c2ccc3ncc(-c4ccc(C#N)cc4)n3c2)cc1)c1ccncc1 [Example 122]    < 1000 nM
CC1(N2CCOCC2)CCN(C(=O)c2ccc(-c3ccc4ncc(-c5ccc(C#N)cc5)n4c3)cc2)CC1 [Example 163]    < 100 nM
N#Cc1ccc(-c2cnc3ccc(-c4ccc(C(=O)N5CCOCC5)cc4)nn23)cc1 [Example 62]    < 100 nM

Query IC50 on MNK2 (Homo sapiens (Human), UniProt Q9HBH9) for CCN1CCN(C(=O)c2ccc(-c3ccc4ncc(-c5ccc(C#N)cc5)n4c3)cc2)CC1 [Example 98]
< 100 nM

Field: IC50 (MNK2 (Homo sapiens (Human), UniProt Q9HBH9)). Entry: CC(=O)Nc1cc(-c2ccc3ncc(-c4ccc(C#N)cc4)n3c2)ccc1C(=O)N1CCOCC1 [Example 166]
< 100 nM

---

study_target: MNK2 (Homo sapiens (Human))
assay_info: In vitro MNK kinase assay (Caliper LabChip mobility shift)
Type: biochemical
condition_label: enzymatic, 250 μM ATP; read-out: IC50 Mnk2
pIC50: −log10 of the molar value. Counter-ions that a name gives are not always drawn.
The following compounds are shown together with reported pIC50 values.

Before answering, review these 9 worked examples.
Cc1cc(-c2ccc3ncc(-c4ccc(C#N)cc4)n3c2)ccc1C(=O)N1CCOCC1 [Example 156]    > 6.00
CC1(N)CCN(C(=O)c2ccc(-c3ccc4ncc(-c5ccc(Cl)cc5)n4c3)cc2)CC1 [Example 173]    > 7.00
O=C(c1ccc(-c2cn3c(-c4ccc(O)cc4)cnc3cn2)cc1)N1CCOCC1 [Example 2]    > 6.00
NC(=O)c1ccc(-c2cnc3cnc(-c4ccc(C(=O)N5CCC(N)CC5)cc4)cn23)cc1 [Example 4, hydrochloride]    > 7.00
N#Cc1ccc(-c2cnc3ccc(-c4ccc(C(=O)N5CCNCC5)cc4)cn23)cc1 [Example 165]    > 7.00
CN1CCN(C2CCN(C(=O)c3ccc(-c4ccc5ncc(-c6ccc(C#N)cc6)n5n4)cc3)CC2)CC1 [Example 70]    > 7.00
CC(=O)Nc1cc(-c2ccc3ncc(-c4ccc(C#N)cc4)n3c2)ccc1C(=O)N1CCN(C)CC1 [Example 149]    > 6.00
CN1CCCN(C(=O)c2ccc(-c3cn4c(-c5ccc(C#N)cc5)cnc4cn3)cc2)CC1 [Example 17]    > 6.00
CC1(N)CCN(C(=O)c2ccc(-c3cn4c(-c5ccc(C#N)cc5)cnc4cn3)cc2F)CC1 [Example 30]    > 6.00

What does the data say about its pIC50? Entry: N#Cc1ccc(-c2cnc3ccc(-c4ccc(C(=O)N5CCCOCC5)cc4)nn23)cc1 [Example 64]
> 7.00

---

Each entry below carries its reported pIC50.
study_target: MNK1 (Homo sapiens, UniProt Q9BUB5)
assay_info: In vitro MNK kinase assay (Caliper LabChip mobility shift)
Format: biochemical
condition_label: enzymatic, 1.2 mM ATP; read-out: IC50 Mnk1
pIC50: −log10 of the molar value.

Some compounds with known pIC50 results, for comparison:
CN1CCN(C(=O)c2ccc(-c3ccc4ncc(-c5ccc6[nH]cnc6c5)n4n3)cc2)CC1 [Example 87]    > 7.00
Cc1cc2ncc(-c3ccc(C#N)cc3)n2cc1-c1ccc(C(=O)N2CCN(C)CC2)cc1 [Example 138]    > 6.00
N#Cc1ccc(-c2cnc3ccc(-c4ccc(C(=O)N5CCC6(CCCCN6)CC5)cc4)nn23)cc1 [Example 71]    > 7.00

Give MNK1 (Homo sapiens, UniProt Q9BUB5) pIC50 for N#Cc1ccc(-c2cnc3ccc(-c4ccc(C(=O)N5CCNC(=O)C5)cc4)nn23)cc1 [Example 68]
> 7.00

Give pIC50 (MNK1 (Homo sapiens, UniProt Q9BUB5)) of the following compound: N#Cc1ccc(-c2cnc3ccc(-c4ccc(C(=O)N5CCOCC5)c(F)c4)cn23)cc1 [Example 162]
> 6.00

Recorded pIC50 for CN1CCN(C(=O)c2ccc(-c3ccc4ncc(-c5ccc(C#N)cc5)n4c3)cc2OC(F)(F)F)CC1 [Example 157] with MNK1 (Homo sapiens, UniProt Q9BUB5), please?
> 6.00

Param readout = pIC50; param system = MNK1 (Homo sapiens, UniProt Q9BUB5); param query = CNC1CCN(C(=O)c2ccc(-c3ccc4ncc(-c5ccc(C#N)cc5)n4n3)cc2)CC1 [Example 60] ; response: value
> 7.00

Request body: readout pIC50, system MNK1 (Homo sapiens, UniProt Q9BUB5), query CC1(O)CCN(C(=O)c2ccc(-c3ccc4ncc(-c5ccc(C#N)cc5)n4c3)cc2)CC1 [Example 106] . Return the value.
> 7.00

Recall the recorded pIC50 for CN(C)C1CCN(C(=O)c2ccc(-c3ccc4ncc(-c5ccc(C#N)cc5)n4c3)cc2)CC1 [Example 112] with MNK1 (Homo sapiens, UniProt Q9BUB5) and state it.
> 7.00

---

study_target: MNK1 (Homo sapiens, UniProt Q9BUB5)
assay_info: In vitro MNK kinase assay (Caliper LabChip mobility shift)
Type: biochemical
condition_label: enzymatic, 1.2 mM ATP; read-out: IC50 Mnk1
measure_name: IC50

Cc1cc(-c2ccc3ncc(-c4ccc(C#N)cc4)n3n2)ccc1C(=O)N1CCN(C)CC1 [Example 74]    < 0.1 µM

Note: attention shifts to another entry.
Request the reported IC50 associated with CN1CCN(C(=O)c2ccc(-c3ccc4ncc(-c5ccc(C#N)cc5)n4c3)cc2F)CC1 [Example 142]
< 1 µM

---

study_target: MNK1 (Homo sapiens, UniProt Q9BUB5)
assay_info: In vitro MNK kinase assay (Caliper LabChip mobility shift)
Format: biochemical
condition_label: enzymatic, 1.2 mM ATP; read-out: IC50 Mnk1
pIC50: −log10 of the molar value.
measure_name: pIC50

Would you please look over these solved cases?
CC1(N)CCN(C(=O)c2ccc(-c3cn4c(-c5ccc(C#N)cc5)cnc4cn3)cc2F)CC1    > 6.00
CS(=O)(=O)NC1CCN(C(=O)c2ccc(-c3ccc4ncc(-c5ccc(C#N)cc5)n4c3)cc2)CC1    > 7.00
COc1cc(-c2cn3c(-c4ccc(C#N)cc4)cnc3cn2)ccc1C(=O)N1CCN(C)CC1    > 6.00

# input compound: CC(=O)NC1CCN(C(=O)c2ccc(-c3ccc4ncc(-c5ccc(C#N)cc5)n4n3)cc2)CC1 ; wanted: its pIC50
> 7.00

Tell me the measured pIC50 of CN1CCN(C2CCN(C(=O)c3ccc(-c4ccc5ncc(-c6ccc(C#N)cc6)n5c4)cc3)CC2)CC1 , please.
> 7.00

---

Each entry below carries its reported IC50.
study_target: MNK2 (Homo sapiens (Human))
assay_info: In vitro MNK kinase assay (Caliper LabChip mobility shift)
Type: biochemical
condition_label: enzymatic, 250 μM ATP; read-out: IC50 Mnk2
Counter-ions that a name gives are not always drawn.

Consider the reported IC50 for these compounds:
CN1CCN(C(=O)c2ccc(-c3ccc4ncc(-c5ccc(C#N)cc5)n4c3)cc2N)CC1    < 100 nM
CN1CCN(C(=O)c2ccc(-c3ccc4ncc(-c5ccc(C#N)cc5)n4c3)cc2O)CC1    < 100 nM
N#Cc1ccc(-c2cnc3ccc(-c4ccc(C(=O)N5CCCOCC5)cc4)cn23)cc1    < 100 nM
N#Cc1ccc(-c2cnc3ccc(-c4ccc(C(=O)N5CCNC(=O)C5)cc4)cn23)cc1    < 100 nM

Request body: readout IC50, system MNK2 (Homo sapiens (Human)), query O=C(c1ccc(-c2cn3c(-c4ccc(Cl)cc4)cnc3cn2)cc1)N1CCNCC1 [Example 46, 2,2,2-trifluoroacetate salt] . Return the value.
< 1000 nM

Param readout = IC50; param system = MNK2 (Homo sapiens (Human)); param query = N#Cc1ccc(-c2cnc3ccc(-c4ccc(C(=O)N5CCN(C(=O)c6ccccc6)CC5)cc4)cn23)cc1 ; response: value
< 100 nM

Record N#Cc1ccc(-c2cnc3cnc(-c4ccc(C(=O)N5CCN(C6CC6)CC5)cc4)cn23)cc1 : what is its IC50 with MNK2 (Homo sapiens (Human))?
< 1000 nM

Record CN1CCN(C(=O)c2ccc(-c3ccc4ncc(-c5ccc(C#N)cc5)n4c3)cc2)CC1=O : what is its IC50 with MNK2 (Homo sapiens (Human))?
< 100 nM

Reported IC50 for MNK2 (Homo sapiens (Human)), given CC(=O)NC1CCN(C(=O)c2ccc(-c3ccn4ncc(-c5ccc(C#N)cc5)c4n3)cc2)CC1 ?
< 100 nM

Recorded IC50 for CC1(C)CCN(C(=O)c2ccc(-c3cn4c(-c5ccc(C(N)=O)cc5)cnc4cn3)cc2)CC1 with MNK2 (Homo sapiens (Human)), please?
< 100 nM

Please tell me: IC50 of CNc1cc(-c2ccc3ncc(-c4ccc(C#N)cc4)n3c2)ccc1C(=O)N1CCN(C)CC1 , system MNK2 (Homo sapiens (Human))?
< 100 nM

GET /values?readout=IC50&system=MNK2 (Homo sapiens (Human))&item= N#Cc1ccc(-c2cnc3ccc(-c4ccc(C(=O)N5CCC6(CCCCN6)CC5)cc4)nn23)cc1
< 100 nM

Record O=C1CCN(C(=O)c2ccc(-c3cn4c(-c5ccc(Cl)cc5)cnc4cn3)cc2)CC1 : what is its IC50 with MNK2 (Homo sapiens (Human))?
< 1000 nM

Param readout = IC50; param system = MNK2 (Homo sapiens (Human)); param query = N#Cc1ccc(-c2cnc3ccc(-c4ccc(C(=O)N5CCNCC5)cc4)nn23)cc1 ; response: value
< 100 nM

Query IC50 on MNK2 (Homo sapiens (Human)) for N#Cc1ccc(-c2cnc3cnc(-c4ccc(C(=O)N5CCC(O)CC5)cc4)cn23)cc1
< 1000 nM

Param readout= IC50; system= MNK2 (Homo sapiens (Human)); entry= CN1CCN(C(=O)c2ccc(-c3ccc4ncc(-c5ccc(C#N)cc5)n4c3)cc2N(C)C)CC1 ; returns value.
< 100 nM

Field: IC50 (MNK2 (Homo sapiens (Human))). Entry: CC1(N)CCN(C(=O)c2ccc(-c3cn4c(-c5ccc(C#N)cc5)cnc4cn3)cc2)CC1 [Example 23, Hydrochloride Salt]
< 100 nM

IC50 of CN1CCN(C(=O)c2ccc(-c3ccc4ncc(-c5ccc(C#N)cc5)n4c3)cc2Cl)CC1 on MNK2 (Homo sapiens (Human))?
< 100 nM

Give MNK2 (Homo sapiens (Human)) IC50 for N#Cc1ccc(-c2cnc3ccc(-c4ccc(C(=O)N5CCC(CCN)CC5)cc4)cn23)cc1
< 100 nM

Identify the measured IC50 of CN(C)C1CCN(C(=O)c2ccc(-c3ccc4ncc(-c5ccc(C#N)cc5)n4n3)cc2)CC1 for MNK2 (Homo sapiens (Human)).
< 100 nM

Kindly state the measured IC50 obtained for CN1CCN(C(=O)c2ccc(-c3cn4c(-c5ccc(Cl)cc5)cnc4cn3)cc2)CC1 with MNK2 (Homo sapiens (Human)).
< 1000 nM

What measured IC50 is associated with CC1(N)CCN(C(=O)c2ccc(-c3cn4c(-c5ccc(C#N)cc5)cnc4cn3)cc2Cl)CC1 on MNK2 (Homo sapiens (Human))?
< 1000 nM

# value lookup — system MNK2 (Homo sapiens (Human)), readout IC50, item N#Cc1ccc(-c2cnn3ccc(-c4ccc(C(=O)N5CCCOCC5)cc4)nc23)cc1
< 100 nM

Request - read-out IC50 | tested on MNK2 (Homo sapiens (Human)) | compound CN1CCN(C2CCN(C(=O)c3ccc(-c4ccc5ncc(-c6ccc7c(c6)CC(=O)N7)n5n4)cc3)CC2)CC1
< 100 nM

Give IC50 (MNK2 (Homo sapiens (Human))) of the following compound: Cc1cc(-c2cn3c(-c4ccc(C#N)cc4)cnc3cn2)ccc1C(=O)N1CCC(C)(N)CC1
< 100 nM
